# target_or_system: T1, CD73 protein (UniProt P21589 27-549)
# T1 construct: also called CD73-biotin
# T1 sequence (looked up): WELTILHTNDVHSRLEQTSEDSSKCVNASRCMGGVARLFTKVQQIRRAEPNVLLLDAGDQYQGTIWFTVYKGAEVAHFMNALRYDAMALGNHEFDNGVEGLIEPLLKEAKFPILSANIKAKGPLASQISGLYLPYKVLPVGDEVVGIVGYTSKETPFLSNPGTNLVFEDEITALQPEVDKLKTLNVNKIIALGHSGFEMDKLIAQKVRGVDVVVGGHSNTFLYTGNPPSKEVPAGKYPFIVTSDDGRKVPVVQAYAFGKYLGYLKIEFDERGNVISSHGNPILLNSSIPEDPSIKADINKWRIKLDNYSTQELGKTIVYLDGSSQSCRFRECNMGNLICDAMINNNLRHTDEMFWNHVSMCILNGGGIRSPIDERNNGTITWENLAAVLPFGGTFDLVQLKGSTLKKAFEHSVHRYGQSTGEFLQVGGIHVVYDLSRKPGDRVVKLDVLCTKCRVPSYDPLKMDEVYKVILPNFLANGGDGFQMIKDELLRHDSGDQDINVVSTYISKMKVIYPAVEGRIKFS
# protocol_text: Octet BLI; Ab-BN3 on protein A sensors, CD73 in solution
metric_name: kon (M⁻¹ s⁻¹)
Please state the figure in M⁻¹ s⁻¹; there is no need to write the unit.

stdin: Fill in kon for record ABN3-2B-BN3 (antibody, V domains shown, not fully specified; position marked * in QQ*YTTPPT (light chain residue 91): unnatural amino acid (UAA) with azide, conjugated to BN3 (PSB12379-PEG3-DBCO), also called ABN3-2B Ab-BN3; ABN-2B) VH: EVQLVESGGGLVQPGGSLRLSCAASGFTFSSYWMHWVRQAPGKGLEWVSAVSGSGDSTYYADSVKGRFTISADTSKNTAYLQMNSLRAEDTAVYYCAREGDWGLDYWGQGTLVTVSS VL: DIQMTQSPSSLSASVGDRVTITCRASQGINNYLAWYQQKPGKAPKLLIYDASNLETGVPSRFSGSRSGTDFTLTISSLQPEDFATYYCQQXYTTPPTFGQGTKLEI
stdout: 185000
